PBM E-score listing for selected sequences.
# Assayed System: Vhr1 (UniProt P40522)
# Sequence: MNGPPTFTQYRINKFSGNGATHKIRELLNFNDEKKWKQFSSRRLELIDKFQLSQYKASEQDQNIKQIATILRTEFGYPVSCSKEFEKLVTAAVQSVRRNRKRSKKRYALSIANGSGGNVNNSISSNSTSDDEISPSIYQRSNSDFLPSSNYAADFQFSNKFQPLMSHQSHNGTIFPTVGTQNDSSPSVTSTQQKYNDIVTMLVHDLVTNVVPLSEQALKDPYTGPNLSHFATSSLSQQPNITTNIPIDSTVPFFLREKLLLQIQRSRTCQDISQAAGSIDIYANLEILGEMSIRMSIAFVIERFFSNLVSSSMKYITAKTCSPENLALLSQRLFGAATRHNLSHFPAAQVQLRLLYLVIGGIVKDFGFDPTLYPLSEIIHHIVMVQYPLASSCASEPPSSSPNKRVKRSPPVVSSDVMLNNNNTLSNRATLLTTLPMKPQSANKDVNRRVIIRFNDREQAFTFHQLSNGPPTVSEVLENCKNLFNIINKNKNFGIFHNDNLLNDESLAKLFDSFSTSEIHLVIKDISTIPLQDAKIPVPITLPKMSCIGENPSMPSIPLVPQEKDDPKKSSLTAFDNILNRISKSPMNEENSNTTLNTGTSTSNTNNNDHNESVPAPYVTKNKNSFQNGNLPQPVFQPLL
# Assay Procedure: PBM E-score (8-mer binding enrichment) (E-score (-0.5 to 0.5)); higher = stronger / more preferred TF binding
# Experimental Conditions: protein concentration: 200 nM; construct: GST-full length
Whole data set: some 33,000 sequences, median “E-score (-0.5 to 0.5)” near -0.012, cut for the highest 2% near 0.27. The list comes from a sample in which the highest values are over-represented; it also holds close analogues and randomly drawn sequences.
Readout Type: PBM E-score

Seq String | Value
CGTCGCGC | 0.0614
CAGTTGCG | 0.107
ACAGTACT | 0.0536
ATAGGAGA | -0.00333
GCATCATA | 0.136
AAATCATC | 0.245
GTCCTTAA | -0.00154
CCGTCACC | -0.114
CCTATCAA | -0.182
ATGCTTGA | 0.0306
GGCGCGCA | 0.121
ATCGTGAC | 0.113
AGCCAGTG | 0.00862
GAGGTTGC | -0.0739
CGTTAGAA | -0.323
CTCACCTA | 0.103
AGGATTCC | 0.0112
GATGTATA | 0.242
CCATCATC | 0.138
AGTCGCTC | 0.237
CGCGCGCG | 0.286
CATGTATC | 0.18
ACCTATAG | -0.144

----------
# Assayed System: Vhr1 (UniProt P40522)
# Sequence: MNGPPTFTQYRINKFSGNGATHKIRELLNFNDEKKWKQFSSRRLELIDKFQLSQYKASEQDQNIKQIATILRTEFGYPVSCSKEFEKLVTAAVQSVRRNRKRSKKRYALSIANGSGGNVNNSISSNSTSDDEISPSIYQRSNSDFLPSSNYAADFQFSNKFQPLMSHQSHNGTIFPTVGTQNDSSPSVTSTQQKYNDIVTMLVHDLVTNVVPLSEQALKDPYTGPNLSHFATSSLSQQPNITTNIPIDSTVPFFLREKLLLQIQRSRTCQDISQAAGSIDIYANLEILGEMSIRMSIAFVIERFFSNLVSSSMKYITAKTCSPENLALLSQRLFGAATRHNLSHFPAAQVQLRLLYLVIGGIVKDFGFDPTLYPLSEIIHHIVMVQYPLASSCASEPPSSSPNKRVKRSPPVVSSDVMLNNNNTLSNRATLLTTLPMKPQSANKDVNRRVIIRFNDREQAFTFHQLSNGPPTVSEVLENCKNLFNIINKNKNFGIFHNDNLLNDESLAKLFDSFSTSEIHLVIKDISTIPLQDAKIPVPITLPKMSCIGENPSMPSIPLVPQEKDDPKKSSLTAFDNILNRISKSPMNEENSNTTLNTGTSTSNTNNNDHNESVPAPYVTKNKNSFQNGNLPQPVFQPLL
# Assay Procedure: PBM E-score (8-mer binding enrichment) (E-score (-0.5 to 0.5)); higher = stronger / more preferred TF binding
# Experimental Conditions: protein concentration: 200 nM; construct: GST-full length
The full ranking holds about 33,000 sequences; the median of “E-score (-0.5 to 0.5)” is about -0.012, and the highest 2% start at about 0.27. Only a selection was taken, and the highest values are over-represented in it overall.
PBM E-score listing for selected sequences.

Seq String | PBM E-score
ACGTCAGA | -0.0949
AATTGAGA | -0.0698
AATTGAGT | 0.272
TGACTCAA | 0.468
ATGGGTGG | 0.242
ATGGGTGC | 0.0292
GGAGATCC | -0.0359
GGCCACTA | -0.00131

Origin of measurements: the supplement of paper PMC3334620
